assay: Metabolic stability in human liver microsomes assessed as compound metabolism after 20 mins incubation in presence of 1 mM NADPH
Assay type: ADME
experimental parameters: liver microsomes, read-out: Drug metabolism
metric: metabolised at 20 min (%)

[
  {
    "compound": "CCC(=O)c1cnn(-c2ccc(NC(=O)c3cn(CC(=O)N4CCN(C)CC4)c4ccc(Cl)cc34)cc2)c1C",
    "test value": 32
  },
  {
    "compound": "CC(=O)c1cnn(-c2ccc(NC(=O)c3cn(CC(=O)N4CCN(C)CC4)c4ccc(Cl)cc34)cc2)c1C",
    "test value": 40
  },
  {
    "compound": "Cc1c(C(=O)CCC(F)(F)F)cnn1-c1ccc(NC(=O)c2cn(CC(=O)N3CCN(C)CC3)c3ccc(Cl)cc23)cc1",
    "test value": 6
  },
  {
    "compound": "CCCC(=O)c1cnn(-c2ccc(NC(=O)c3cn(CC(=O)N4C[C@@H]5C[C@@H](O)CN5C[C@@H]4C)c4ccc(C)cc34)cc2)c1C",
    "test value": 61
  },
  {
    "compound": "CCCC(=O)c1cnn(-c2ccc(NC(=O)c3cn(CC(=O)N4CCN(CC(=O)N(C)C)CC4)c4ccc(Cl)cc34)cc2)c1C",
    "test value": 28
  }
]

(1) CCCC(=O)c1cnn(-c2ccc(NC(=O)c3cn(CC(=O)N4CCN(C)CC4)c4cc(C)c(Br)cc34)cc2)c1C
(2) CCCC(=O)c1cnn(-c2ccc(NC(=O)c3cn(CC(=O)O)c4ccc(C)cc34)cc2)c1C
(3) CCCC(=O)c1cnn(-c2ccc(NC(=O)c3cn(CC(=O)N(C)C)c4cc(C)c(C)cc34)cc2)c1C
(4) CCCC(=O)c1cnn(-c2ccc(NC(=O)c3cn(CC(=O)N4CCN(C)CC4)c4ccc(C(F)(F)F)cc34)cc2)c1C
Query block: With regard to metabolised at 20 min, arrange the entries in ascending order, please. Answer by listing the labels in the requested order.
Result block: 2, 4, 1, 3

* * *

assayed target: P2Y purinoceptor 12 (Homo sapiens, UniProt Q9H244)
Sequence (Q9H244 whole entry): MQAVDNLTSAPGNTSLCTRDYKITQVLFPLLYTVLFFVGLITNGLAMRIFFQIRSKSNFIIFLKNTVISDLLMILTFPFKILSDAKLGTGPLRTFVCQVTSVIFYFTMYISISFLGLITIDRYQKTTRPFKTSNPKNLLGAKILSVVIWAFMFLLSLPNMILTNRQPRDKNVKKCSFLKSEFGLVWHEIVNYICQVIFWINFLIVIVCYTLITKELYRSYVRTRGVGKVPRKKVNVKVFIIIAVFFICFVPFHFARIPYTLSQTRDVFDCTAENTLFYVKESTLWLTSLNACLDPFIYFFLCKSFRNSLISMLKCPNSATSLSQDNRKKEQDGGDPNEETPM
assay: Displacement of [33P]2MeS-ADP from P2Y12 receptor (unknown origin) transfected in CHO cells after 30 mins by scintillation counting analysis
pIC50: −log10 of the molar value.
metric: pIC50

Illustrative cases are given below, each with its answer.
[
  {
    "molecule": "CCCC(=O)c1cnn(-c2ccc(N(C)C(=O)c3cn(CC(=O)O)c4ccc(C)cc34)cc2)c1C",
    "test value": 6.52
  },
  {
    "molecule": "CCCC(=O)c1cnn(-c2ccc(NC(=O)c3cn(CCCC(=O)O)c4ccc(C)cc34)cc2)c1C",
    "test value": 7.62
  },
  {
    "molecule": "CCCC(=O)c1cnn(-c2ccc(NC(=O)c3cn(CC(=O)N4CCN(C)CC4)c4ccc(Cl)cc34)c(C#N)c2)c1C",
    "test value": 7.32
  }
]

(A) CCCC(=O)c1cnn(-c2ccc(NC(=O)c3cn(CC(=O)N4CCN(CCOC)CC4)c4ccc(C)cc34)cc2)c1C
(B) CCCC(=O)c1cnn(-c2ccc(NC(=O)c3cn(CC(=O)N4CCN(C)CC4)c4cc(Br)c(C)cc34)cc2)c1C
Query block: Quick one: lower pIC50, A or B ? Indicate your choice by writing its label.
Result block: B

(1) CCCC(=O)c1cnn(-c2ccc(NC(=O)c3cn(CC(=O)N4CC(C)NC(C)C4)c4ccc(C)cc34)cc2)c1C (stereo unspecified)
(2) CCCC(=O)c1cnn(-c2ccc(NC(=O)c3cn(CC(=O)N4CC5CN(C)CC5C4)c4ccc(C)cc34)cc2)c1C (stereo unspecified)
Query block: Smaller pIC50 value? Options are 1 and 2 Refer to your chosen item by its label in the answer.
Result block: 1

(1) CCCC(=O)c1cnn(-c2cnc(NC(=O)c3cn(CC(=O)N4CCN(C)CC4)c4ccc(Cl)cc34)cn2)c1C
(2) CCCC(=O)c1cnn(-c2ccc(NC(=O)c3cn(CC(=O)O)c4cc(C)c(C)cc34)cc2)c1C
(3) CCCC(=O)c1cnn(-c2ccc(NC(=O)c3cn(CC(=O)N4CCN(C)CC4)c4ccc(C(F)(F)F)cc34)cc2)c1C
(4) CCCC(=O)c1cnn(-c2ccc(NC(=O)c3cn(CC(=O)N4CC5CCN(C)C5C4)c4ccc(C)cc34)cc2)c1C (stereo unspecified)
(5) CCOC(=O)c1c(C)nn(-c2ccc(C(=O)NCc3ccccc3OC)cc2)c1C
Query block: Arrange the 5 molecules from largest to smallest pIC50. Thanks in advance for listing the labels in the requested order.
Result block: 2, 3, 4, 1, 5
(2: 8.29, 3: 7.30, 4: 7.05, 1: 6.56, 5: 5.81)
